- Tested on: KRAS-mutant PDC complex spheroid viability;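 note: viability read after seven days of compound exposure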
- assay: Anticancer human tumor 186277-243-T-J2-PDC patient-derived colon adenocarcinoma cell line growth inhibition [KRAS2]; active = viability on the fitted dose curve at most 10% of control; inactive = the rest
- cond: second compound 0.316 µM; first compound 0.0316 µM
- Source text: Multicellular complex tumor spheroid response to RAS pathway inhibitors in combination with a targeted agents in patient-derived cell lines with oncogenic KRAS variants from multiple cancer types A high-throughput screen of multi-cell type tumor spheroids was designed to identify active combinations of targeted small molecules and KRAS pathway inhibitors. […] Compounds. […] If the clinical Cmax for an agent had not been determined, the highest concentration tested was 10 microM. […]
Your reply should match one of these outcome classes. YES for active, NO for inactive

{"columns": ["compound", "group"],
 "data": [
  ["CC(=O)OC12COC1CC(O)C1(C)C(=O)C(O)C3=C(C)C(OC(=O)C(O)C(NC(=O)OC(C)(C)C)c4ccccc4)CC(O)(C(OC(=O)c4ccccc4)C21)C3(C)C (centres undefined) + COc1cc2nc(C)nc(NC(C)c3cc(N)cc(C(F)(F)F)c3)c2cc1OC1CCOC1", "YES"],
  ["CC(=O)Nc1cccc(-n2c(=O)n(C3CC3)c(=O)c3c(Nc4ccc(I)cc4F)n(C)c(=O)c(C)c32)c1 + C=CC(=O)N1CCN(c2nc(OCC3CCCN3C)nc3c2CCN(c2cccc4cccc(C)c24)C3)CC1CC#N", "YES"],
  ["CC(=O)OC12COC1CC(O)C1(C)C(=O)C(O)C3=C(C)C(OC(=O)C(O)C(NC(=O)OC(C)(C)C)c4ccccc4)CC(O)(C(OC(=O)c4ccccc4)C21)C3(C)C (centres undefined) + CNCc1ccccc1-c1csc(C(C)Nc2nc(C)nc3cc(OC)c(OC)cc23)c1", "YES"]
]}

We next turn to a different compound, shown below.
**Query** Please indicate how the test categorized COC(=O)c1ccc2c(C(=Nc3ccc(N(C)C(=O)CN4CCN(C)CC4)cc3)c3ccccc3)c(O)[nH]c2c1 + C=CC(=O)N1CCN(c2nc(=O)n(-c3c(C)ccnc3C(C)C)c3nc(-c4c(O)cccc4F)c(F)cc23)C(C)C1 .
**Result** NO
